target: HLA-B*57:01; assay: IEDB peptide-MHC binding, purified MHC/competitive/fluorescence; filed as Kd, often an IC50 or EC50 that approximates it; bounds were set here for any values at or beyond the usual limits of such assays; details: source organism: Orthohantavirus negraense
endpoint-label: Kd

# primary-sequence, recorded-measurement
rows = [
    ("SLLFREVWK", "≥ 20 µM"),
]

====

Below: a set of entries, each annotated with reported Kd.
biological target: HLA-A*29:02; assay: IEDB peptide-MHC binding, purified MHC/competitive/radioactivity; filed as Kd, often an IC50 or EC50 that approximates it; bounds were set here for any values at or beyond the usual limits of such assays; settings: source organism: Mammarenavirus guanaritoense
endpoint-label: Kd

# primary-sequence, measured-on, recorded-measurement
measured = [
    ("FFGALKFKI", "HLA-A*29:02", "0.0203 µM"),
    ("VFQPSTGNYV", "HLA-A*29:02", "≥ 31.6 µM"),
    ("STGNYVHCF", "HLA-A*29:02", "≥ 35.9 µM"),
]

Numbers sourced from the Immune Epitope Database (IEDB).
